Target: Ba/F3-FL-TYK2-P760L cells (Homo sapiens, UniProt P29597, P760L, cells depend on it)
Construct: BaF3-FL-T2P760L (nM)
Sequence (P29597 whole entry P760L): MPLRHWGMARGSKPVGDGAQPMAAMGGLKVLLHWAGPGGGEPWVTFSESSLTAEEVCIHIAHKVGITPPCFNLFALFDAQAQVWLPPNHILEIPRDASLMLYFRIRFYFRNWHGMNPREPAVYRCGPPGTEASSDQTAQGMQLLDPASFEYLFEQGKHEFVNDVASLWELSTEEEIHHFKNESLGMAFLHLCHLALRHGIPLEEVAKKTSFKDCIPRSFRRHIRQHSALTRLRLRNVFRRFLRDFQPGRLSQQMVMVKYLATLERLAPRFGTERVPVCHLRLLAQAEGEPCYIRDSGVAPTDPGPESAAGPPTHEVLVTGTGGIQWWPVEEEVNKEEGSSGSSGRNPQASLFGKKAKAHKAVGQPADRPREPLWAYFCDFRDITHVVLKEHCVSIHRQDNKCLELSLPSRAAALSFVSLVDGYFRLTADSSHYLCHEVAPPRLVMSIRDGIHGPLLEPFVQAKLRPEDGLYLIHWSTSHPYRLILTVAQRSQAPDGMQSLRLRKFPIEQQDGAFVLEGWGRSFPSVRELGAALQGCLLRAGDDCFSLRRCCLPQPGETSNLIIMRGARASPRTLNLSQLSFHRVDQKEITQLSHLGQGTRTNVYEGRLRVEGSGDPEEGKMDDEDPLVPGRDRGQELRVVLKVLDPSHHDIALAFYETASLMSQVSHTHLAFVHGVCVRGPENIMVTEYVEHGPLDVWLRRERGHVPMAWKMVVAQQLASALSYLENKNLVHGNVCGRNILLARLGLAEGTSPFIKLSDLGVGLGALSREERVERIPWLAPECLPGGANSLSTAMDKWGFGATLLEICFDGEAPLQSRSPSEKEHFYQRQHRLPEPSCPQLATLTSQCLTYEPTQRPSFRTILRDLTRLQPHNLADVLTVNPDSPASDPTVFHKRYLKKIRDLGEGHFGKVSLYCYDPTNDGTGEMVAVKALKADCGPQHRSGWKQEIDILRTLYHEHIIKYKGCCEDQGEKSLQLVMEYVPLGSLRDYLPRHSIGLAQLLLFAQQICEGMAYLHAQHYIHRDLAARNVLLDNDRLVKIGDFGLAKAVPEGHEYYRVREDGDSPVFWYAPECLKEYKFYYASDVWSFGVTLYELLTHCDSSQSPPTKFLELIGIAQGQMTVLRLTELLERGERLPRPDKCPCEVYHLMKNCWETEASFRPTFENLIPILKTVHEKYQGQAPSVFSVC
Assay: Anti-proliferative assay, Ba/F3-FL-TYK2-P760L cells (Cell-Titer Glo)
Assay type: cell-based
Conditions: 72 h, read-out: BaF3-FL-T2P760L IC50
Give log10 GI50 for every item shown.
Please note: log10 values; quantity GI50; unit nM.

Use the examples below as a reference point.
CNC(=O)c1cnc(NC(=O)C2CC2)cc1Nc1cn(C)c2ncn([C@H](C)C(F)(F)F)c(=O)c12 (single isomer, unassigned) [Example 234A] : 1.98
[2H]C([2H])([2H])NC(=O)c1cnc(NC(=O)C2CC2)cc1Nc1ccn2ncc(C)c2c1OC : 1.81
[2H]C([2H])([2H])NC(=O)c1cnc(NC(=O)C2CC2)cc1Nc1cn(C)c2ccn([C@@H]3CCOC3)c(=O)c12 : 3.04
[2H]C([2H])([2H])NC(=O)c1cnc(NC(=O)C2CC2)cc1Nc1cn(C)c2ccn(CC(=O)OCC)c(=O)c12 : 2.40

Quick request: log10 GI50 for each listed item, please.
1. CNC(=O)c1nnc(NC(=O)C2CC2)cc1Nc1cn(C)c2ccn(C)c(=O)c12
2. [2H]C([2H])([2H])NC(=O)c1cnc(Nc2cnn(C3CCOCC3)c2)nc1Nc1cccc(-c2ncn(C)n2)c1OC

Result:
2.05
2.30
